The measured values listed here are drawn from PubChem BioAssay (Tox21).

Test: qHTS assay to identify small molecule antagonists of the thyroid receptor (TR) signaling pathway - cell viability counter screen (AID 743064); note: nearly all actives have a fitted effect of over 50% in size; note: potency is the fitted concentration of half-maximal effect
Settings: GH3.TRE-Luc viability, CellTiter-Fluor, 24 h; series mostly up to 70.3 µM
From the text: National Center for Advancing Translational Sciences [NCATS] NIH Chemical Genomics Center [NCGC] U.S. Environmental Protection Agency [EPA] National Institutes of Environmental Health Sciences [NIEHS] National Toxicology Program [NTP] U.S. Food and Drug Administration [FDA] Thyroid receptor (TR), a nuclear hormone receptor, plays an important role in development, proliferation, differentiation, metabolism, brain function, and cardiovascular system. […]
Inconclusive results are not listed. The source made the active and inactive calls. Calls come from the whole dose curve; as a rule, active = well fitted cell-killing curve with a large enough effect in the repeat runs; inconclusive = weak or mixed curves, or effect the other way; inactive = no such curve, though single readings can be large or run the other way.
Measurement Name: Potency

# count of solved cases: 10
In [3]: df
Out[3]:
                                   compound  measurement_name     value
0           O=C=Nc1ccc(Cc2ccc(N=C=O)cc2)cc1           Potency  inactive
1            Cc1[nH]c(=O)c(C#N)cc1-c1ccncc1           Potency  inactive
2  c1ccc2cc(Nc3ccc(Nc4ccc5ccccc5c4)cc3)ccc2c1           Potency  inactive
3        CCOC(=O)C(C#N)=C(c1ccccc1)c1ccccc1           Potency  inactive
4                       c1cc(-c2ccncc2)ccn1           Potency  inactive
5                          Cc1ccc(C)c(O)c1C           Potency  inactive
6                            CC(=O)c1ccccn1           Potency  inactive
7  Cc1c(OCC(F)(F)F)ccnc1CS(=O)c1nc2ccccc2[nH]1 (centres undefined)           Potency  inactive
8  CCCCC(CC)COC(=O)c1ccc(N(C)C)cc1 (centres undefined)           Potency  inactive
9                            CCCCOCCOCCOCCO           Potency  inactive

Prompt line: Looking for the measured Potency of `COc1cc([C@@H]2c3cc4c(cc3[C@H](O)[C@H]3COC(=O)[C@H]23)OCO4)cc(OC)c1OC` , can you help?
Response line: 43.2 nM (active)

Prompt line: If you can, please state the reported Potency value of CC1=CC2C3CC(C=C3C)C2C1 (centres undefined) .
Response line: inactive

Prompt line: Could you tell me which Potency is on file for `c1ccncc1` ?
Response line: inactive

Prompt line: # get_value(readout='Potency', item= `O=CCc1ccccc1` )
Response line: inactive
